test: In vivo rat pharmacokinetics (intravenous and oral); conditions: plasma, intravenous 0.5 to 1 mg/kg, read-out: Clp
reported_property: clearance (mL/min/kg)
State just the number; it will be interpreted in mL/min/kg.

Solved cases (3 shown):
# molecule, unit_abbreviation, reported_value
rows = [
    ("CC(C)(C)c1cc(-c2ccc(F)cc2)nn2cc(C(=O)N3CCN(C(=O)c4c[nH]cn4)CC3(C)C)nc12", "mL/min/kg", 16.9),
    ("Cc1nc(C(=O)N2CCN(C(=O)c3cn4nc(-c5ccc(Cl)cc5)cc(C(C)(C)C)c4n3)C(C)(C)C2)n[nH]1", "mL/min/kg", 4.21),
    ("CC(C)(O)C(=O)N1CCN(C(=O)c2cn3nc(-c4ccc(F)cc4)cc(C4(C)CC4)c3n2)C(C)(C)C1", "mL/min/kg", 29.3),
]

# clearance lookup, item CC(C)(C)c1cc(-c2ccc(F)cc2)nn2cc(C(=O)N3CCN(C(=O)c4ccn[nH]4)CC3(C)C)nc12 10.9

###

molecular target: PAR2 (HT-29 cells, trypsin activation) (Homo sapiens); construct: host or cells: HT-29 cells; assay: Ca FLIPR TETRA assay, ANTAGONIST mode, stimulation with 3.1 U/mL trypsin; assay type: cell-based; conditions: HT-29 cells, antagonist mode, stimulation with 3.1 U/mL trypsin
Listing of entries alongside the reported IC50.
State just the number; it will be interpreted in nM.

# IC50 lookup, item CC(C)c1cc(-c2ccc(F)cc2)nn2cc(C(=O)N3CCOC(=O)C3(C)C)nc12 87

# IC50 lookup, item Cc1cccc(-c2cc(C(C)C)c3nc(C(=O)N4CCN(C(=O)C(C)(C)O)CC4(C)C)cn3n2)c1 190

# IC50 lookup, item CC(C)c1cc(-c2ccc(C#N)cc2)nn2cc(C(=O)N3CCN(C(=O)C(C)(C)O)CC3(C)C)nc12 880

# IC50 lookup, item CC(C)(O)CN1CCN(C(=O)c2cn3nc(-c4ccc(F)cc4)cc(C(C)(C)C)c3n2)C(C)(C)C1=O 2.5

# IC50 lookup, item Cc1cccc(-c2cc(C(C)(C)C)c3nc(C(=O)N4CCN(C(=O)c5cc(C)n[nH]5)CC4(C)C)cn3n2)c1 2.8

# IC50 lookup, item COC(=O)C1CC(C(=O)N2CCN(C(=O)c3cn4nc(-c5ccc(F)cc5)cc(C(C)(C)C)c4n3)C(C)(C)C2)C1 (stereo not drawn) [Compound I-538] 0.9

###

biological target: PAR2 (HT-29 cells, SLIGKV activation) (Homo sapiens); construct: host or cells: HT-29 cells; assay: Ca FLIPR TETRA assay, ANTAGONIST mode, stimulation with 8 μM SLIGKV; format: cell-based; settings: HT-29 cells, antagonist mode, stimulation with 8 μM SLIGKV
Sequence (P55085 26-397): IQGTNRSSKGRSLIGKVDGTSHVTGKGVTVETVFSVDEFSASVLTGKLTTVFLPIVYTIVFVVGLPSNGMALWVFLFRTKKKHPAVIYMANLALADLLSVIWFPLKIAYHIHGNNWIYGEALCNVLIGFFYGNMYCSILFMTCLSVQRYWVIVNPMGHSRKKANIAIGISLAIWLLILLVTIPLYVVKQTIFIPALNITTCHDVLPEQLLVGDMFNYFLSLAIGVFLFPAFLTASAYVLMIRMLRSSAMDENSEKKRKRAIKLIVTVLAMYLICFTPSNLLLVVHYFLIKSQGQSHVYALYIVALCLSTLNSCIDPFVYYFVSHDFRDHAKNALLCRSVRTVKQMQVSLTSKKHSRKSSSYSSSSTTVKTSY
reported_property: log10 IC50 (log10 of the value in nM)
Field: value | Transform: log10 | Quantity: IC50 | Unit: nM

Solved cases (4 shown):
# compound, log10 IC50
rows = [
    ("Cc1nnc(C(=O)N2CCN(C(=O)c3cn4nc(-c5ccc(F)c(Cl)c5)cc(C(C)(C)C)c4n3)C(C)(C)C2)o1", 0.26),
    ("Cc1cc(-c2cc(C(C)C)c3nc(C(=O)N4CCN(CO)C(=O)C4(C)C)cn3n2)ccc1F", 1.41),
    ("Cc1cc(C(=O)N2CCN(C(=O)c3cn4nc(-c5ccc(Cl)cc5)cc(C(C)(C)C)c4n3)C(C)(C)C2)[nH]n1", -0.30),
    ("Cc1cccc(-c2cc(C(C)(C)C)c3nc(C(=O)N4CCN(C(=O)c5c[nH]c(C)n5)CC4(C)C)cn3n2)c1", 0.75),
]

# log10 IC50 lookup, item CC(C)(C)c1cc(-c2ccc(F)cc2)nn2cc(C(=O)N3CCC(O)CC3(C)C)nc12 (centres unmarked) 0.45

# log10 IC50 lookup, item CC(C)(C)c1cc(-c2ccc(C(F)(F)F)cc2)nn2cc(C(=O)N3CCN(C(=O)c4ncccn4)CC3(C)C)nc12 0.26

# log10 IC50 lookup, item Cc1n[nH]c(C(=O)N2CCN(C(=O)c3cn4nc(-c5ccc(C)c(F)c5)cc(C(C)C)c4n3)C(C)(C)C2)n1 0.28
